Just for reference, paper PMC7937321 is where these values come from.

PROTOCOL_NOTES: Cytotoxicity in the TK6 assay (CE, RS, RSG, RTG)
TEST_CONDITIONS: human, TK6 cells without S9 mix, CE0 (%), cell viability on Day 0, Short treatment, -S9 mix, dose 173.70 μg/mL
METRIC_NAME: viability at 4 h, 173.7 μg/mL (%)

[
  {
    "MOLECULE": "Nc1cc([N+](=O)[O-])ccc1C(=O)O",
    "METRIC_NAME": "viability at 4 h, 173.7 μg/mL",
    "UNITS": "%",
    "RECORDED_VALUE": 120
  }
]

* * *

Tested on: human lymphoblastoid TK6 cells, thymidine kinase gene
PROTOCOL_NOTES: TK gene mutation assay (TK6 assay, OECD TG490)
TEST_CONDITIONS: short-term 4 h, with rat liver S9
METRIC_NAME: TK mutation assay, With S9

[
  {
    "COMPOUND": "Cc1c(N)cccc1N [2,6-Diaminotoluene]",
    "RECORDED_VALUE": "Pos"
  },
  {
    "COMPOUND": "Nc1ccc([N+](=O)[O-])cc1N [4-Nitro-o-phenylenediamine]",
    "RECORDED_VALUE": "Neg"
  },
  {
    "COMPOUND": "Nc1cc([N+](=O)[O-])ccc1C(=O)O [4-Nitroanthranilic acid]",
    "RECORDED_VALUE": "Neg"
  },
  {
    "COMPOUND": "O=[N+]([O-])c1cccc2ccccc12 [1-Nitronaphthalene]",
    "RECORDED_VALUE": "Pos"
  },
  {
    "COMPOUND": "Cl.ClCc1ccccn1 [2-(Chloromethyl) pyridine HCl]",
    "RECORDED_VALUE": "Pos"
  }
]
